- assay overview: small-molecule microarray binders of probe aXIP, primary screen, biochemical, NeuroSMM set, 635/667 nm fluorescence (AID 1119);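 note: probe is the protein aXip251-270 applied at 1 µg/mL to compound-printed slides; binding of probe to printed compounds measured as 667 nm fluorescence plus signal to noise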
- stated conditions: higher = more signal, called active from +8 up or from −8 down
Short version: composite Z-score at least -0.1 is Condition met, less is Condition not met.

{"compound": "C=CCNC(=O)[C@@H]1[C@H]2C(=O)O[C@H](c3ccccc3)[C@H](c3ccccc3)N2[C@H](c2ccc(O)cc2)[C@@]12C(=O)N(C(=O)OCCOC)c1ccc(C#CCC(C(=O)OC)C(=O)OC)cc12", "answer label": "Condition met"}
{"compound": "COCCCNC(=O)[C@@]1(Cc2ccccc2I)c2ccccc2C(=O)N(C2CCCCC2)[C@H]1c1ccc(CO)cc1", "answer label": "Condition met"}
{"compound": "C=C(C)C1CN([C@H](CO)c2ccccc2)C(=O)/C1=C\\c1ccccc1 (some centres not stated)", "answer label": "Condition not met"}
{"compound": "CC(CO)N1C(=O)[C@@H]2[C@H]3C(=O)OCC=C[C@H]3OC23C=CCN(c2ccc4ccccc4c2)C(=O)[C@@H]13 (some centres not stated)", "answer label": "Condition met"}
{"compound": "C=C(/C=C\\CNS(=O)(=O)c1ccc(C)cc1)[C@H](O)[C@H]1CCCN1S(=O)(=O)c1ccccc1[N+](=O)[O-]", "answer label": "Condition not met"}
{"compound": "CC[C@@H]1C=C(C(=O)O)[C@H](c2cccc(Cl)c2)N1S(=O)(=O)c1ccc(C)cc1", "answer label": "Condition not met"}
{"compound": "COC(=O)c1ccc(OC)c(/C=C\\CC(OC(=O)c2ccncc2)c2ccccc2)c1 (configuration not stated)", "answer label": "Condition met"}

# credit: PubChem BioAssay
